src = ChEMBL document CHEMBL4402585

- Target Desc: Bromodomain-containing protein 4 (Homo sapiens)
- Method Description: Inhibition of SGRG-K(Ac)-GG-K(Ac)-GLG-K(Ac)-GGA-K(Ac)-RHRKVGG-K-Biotin binding to N-terminal His6-tagged BRD4 bromodomain 2 (344 to 455 residues) (unknown origin) expressed in Escherichia coli BL21 (DE3) preincubated for 15 mins followed by biotin-labeled H4 peptide addition and measured after 10 mins by Alphascreen assay

Structure	Qual	IC50 (nM)
Cc1cc(-c2cc(NS(C)(=O)=O)ccc2OCC(C)(C)C)n2cc[nH]c(=O)c12	=	669
Cc1cc(-c2cc(NS(C)(=O)=O)ccc2Nc2ccccc2)n2cc[nH]c(=O)c12	=	28.4
Cc1cc(-c2cc(NS(C)(=O)=O)ccc2Oc2ccccn2)n2cc[nH]c(=O)c12	=	25.9
Cc1cc(-c2cc(S(=O)(=O)N(C)C)cnc2Oc2ccc(F)cc2F)n2cc[nH]c(=O)c12	=	772
Cc1cc(-c2cc(NS(C)(=O)=O)ccc2Oc2ccc(Cl)cc2)n2cc[nH]c(=O)c12	=	178
Cc1cc(-c2cc(NS(C)(=O)=O)ccc2Oc2ccccc2)n2ccn(C)c(=O)c12	>	2000
CCS(=O)(=O)Nc1ccc(Oc2ccc(F)cc2F)c(-c2cn(C)c(=O)c3[nH]ccc23)c1	=	2.7
Cc1cc(-c2cc(CS(C)(=O)=O)cnc2Oc2ccc(F)cc2F)n2cc[nH]c(=O)c12	=	3.5
Cc1cc(-c2cc(NS(C)(=O)=O)ccc2OCC2CC2)n2cc[nH]c(=O)c12	=	77.2

* * *

- Method Description: Half life in mouse at 3 mg/kg, po by LC-MS/MS analysis
- Type: ADME, organism-based
- Run Conditions: in vivo
Attribute Measured: half-life (h)

Structure	Attribute Measured	Recorded Number
CCS(=O)(=O)Cc1cnc(Oc2ccc(F)cc2F)c(-c2cc(C)c3c(=O)[nH]ccn23)c1	half-life	1.3

* * *

- Method Description: Half life in dog liver microsomes at 0.1 uM preincubated for 10 mins followed by NADPH addition and measured up to 60 mins by LC-MS/MS analysis
- Format: ADME, Canis lupus familiaris, Microsome
Attribute Measured: half-life at 0.1 µM

Structure	Result
CCS(=O)(=O)Cc1cnc(Oc2ccc(F)cc2F)c(-c2cc(C)c3c(=O)[nH]ccn23)c1	1.39 h

* * *

- Method Description: Cmax in mouse at 3 mg/kg, po by LC-MS/MS analysis
- Assay type: ADME, organism-based
- Set-up: dose 3 mg/kg, route oral
- Run Conditions: in vivo

Structure	Cmax / ng/mL
CCS(=O)(=O)Cc1cnc(Oc2ccc(F)cc2F)c(-c2cc(C)c3c(=O)[nH]ccn23)c1	399

* * *

- Target Desc: UniProt Q09472
- Sequence (Q09472 whole entry): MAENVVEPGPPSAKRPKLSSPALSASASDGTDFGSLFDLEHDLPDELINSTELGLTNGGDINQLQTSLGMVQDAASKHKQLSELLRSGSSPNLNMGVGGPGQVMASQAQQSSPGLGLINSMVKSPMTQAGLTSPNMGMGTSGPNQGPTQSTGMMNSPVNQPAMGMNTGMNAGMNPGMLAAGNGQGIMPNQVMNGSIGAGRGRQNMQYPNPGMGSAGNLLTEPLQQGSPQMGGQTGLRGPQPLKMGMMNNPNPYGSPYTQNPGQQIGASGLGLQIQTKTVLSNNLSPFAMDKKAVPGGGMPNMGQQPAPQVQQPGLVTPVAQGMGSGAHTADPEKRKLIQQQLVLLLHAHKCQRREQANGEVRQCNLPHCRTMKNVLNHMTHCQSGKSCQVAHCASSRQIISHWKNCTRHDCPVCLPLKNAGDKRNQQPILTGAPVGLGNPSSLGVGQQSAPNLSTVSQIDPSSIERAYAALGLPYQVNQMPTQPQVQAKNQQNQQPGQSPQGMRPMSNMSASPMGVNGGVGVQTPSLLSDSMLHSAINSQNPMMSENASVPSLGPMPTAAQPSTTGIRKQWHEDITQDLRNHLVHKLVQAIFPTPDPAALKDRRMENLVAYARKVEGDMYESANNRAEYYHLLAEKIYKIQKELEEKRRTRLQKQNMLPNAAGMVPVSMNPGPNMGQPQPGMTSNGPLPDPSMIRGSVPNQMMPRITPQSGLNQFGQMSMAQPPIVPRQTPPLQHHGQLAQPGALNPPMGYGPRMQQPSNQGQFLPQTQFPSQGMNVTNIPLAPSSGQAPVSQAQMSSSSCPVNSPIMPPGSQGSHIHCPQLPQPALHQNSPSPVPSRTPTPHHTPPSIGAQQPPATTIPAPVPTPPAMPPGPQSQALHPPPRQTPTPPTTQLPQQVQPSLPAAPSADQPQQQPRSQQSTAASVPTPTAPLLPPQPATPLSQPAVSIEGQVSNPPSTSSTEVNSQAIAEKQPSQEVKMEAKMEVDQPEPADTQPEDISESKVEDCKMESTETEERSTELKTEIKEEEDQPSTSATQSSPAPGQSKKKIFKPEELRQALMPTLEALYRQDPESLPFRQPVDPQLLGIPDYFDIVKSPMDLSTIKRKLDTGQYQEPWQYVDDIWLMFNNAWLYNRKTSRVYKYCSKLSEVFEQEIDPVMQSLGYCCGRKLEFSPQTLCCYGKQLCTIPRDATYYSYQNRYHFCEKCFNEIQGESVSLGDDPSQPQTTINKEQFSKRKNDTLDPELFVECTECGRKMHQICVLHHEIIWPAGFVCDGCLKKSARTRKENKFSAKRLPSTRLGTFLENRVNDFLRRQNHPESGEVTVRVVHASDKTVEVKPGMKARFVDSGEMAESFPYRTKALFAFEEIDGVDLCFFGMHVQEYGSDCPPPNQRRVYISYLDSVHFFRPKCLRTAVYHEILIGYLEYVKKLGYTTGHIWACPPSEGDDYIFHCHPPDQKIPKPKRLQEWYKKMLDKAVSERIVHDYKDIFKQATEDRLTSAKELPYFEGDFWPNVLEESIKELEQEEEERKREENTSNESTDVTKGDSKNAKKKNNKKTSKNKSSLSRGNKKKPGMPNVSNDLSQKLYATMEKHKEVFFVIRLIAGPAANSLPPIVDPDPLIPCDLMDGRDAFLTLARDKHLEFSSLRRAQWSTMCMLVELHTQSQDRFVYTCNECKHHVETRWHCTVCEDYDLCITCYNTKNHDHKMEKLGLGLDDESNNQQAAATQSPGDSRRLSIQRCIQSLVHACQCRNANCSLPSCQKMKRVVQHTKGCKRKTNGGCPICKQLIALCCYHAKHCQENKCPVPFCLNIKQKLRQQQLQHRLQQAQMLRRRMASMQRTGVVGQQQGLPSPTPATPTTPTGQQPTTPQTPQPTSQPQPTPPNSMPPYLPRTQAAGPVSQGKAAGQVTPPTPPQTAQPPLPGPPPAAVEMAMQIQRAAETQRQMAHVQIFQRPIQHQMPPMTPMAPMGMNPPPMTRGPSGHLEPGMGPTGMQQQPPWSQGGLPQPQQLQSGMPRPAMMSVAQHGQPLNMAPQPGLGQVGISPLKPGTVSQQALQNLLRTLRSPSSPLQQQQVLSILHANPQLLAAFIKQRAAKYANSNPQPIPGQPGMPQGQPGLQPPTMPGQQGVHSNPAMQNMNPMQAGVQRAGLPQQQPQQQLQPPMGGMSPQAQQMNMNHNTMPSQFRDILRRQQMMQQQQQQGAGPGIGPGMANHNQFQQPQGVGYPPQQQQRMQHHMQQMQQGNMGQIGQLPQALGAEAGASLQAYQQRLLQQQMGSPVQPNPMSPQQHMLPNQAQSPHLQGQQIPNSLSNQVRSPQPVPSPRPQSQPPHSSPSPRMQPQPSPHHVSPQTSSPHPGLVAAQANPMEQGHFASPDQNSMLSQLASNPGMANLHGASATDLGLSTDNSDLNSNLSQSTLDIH
I'd appreciate it if you marked entries T when IC50 is lower than 10 µM and F when it is not.

Structure	Classification
Cc1cc(-c2cc(NS(C)(=O)=O)ccc2Oc2ccc(Cl)cc2)n2cc[nH]c(=O)c12	F
Cc1cc(-c2cc(S(=O)(=O)N(C)C)cnc2Oc2ccc(F)cc2F)n2cc[nH]c(=O)c12	F
Cc1cc(-c2cc(NS(C)(=O)=O)ccc2Oc2ccccc2)n2c1C(=O)NCC2	F
CCS(=O)(=O)Nc1ccc(Oc2ccc(F)cc2F)c(-c2cc(C)c3c(=O)[nH]ccn23)c1	T
Cc1cc(-c2cc(NS(C)(=O)=O)ccc2Cc2ccccc2)n2cc[nH]c(=O)c12	F
Cc1cc(-c2cc(NS(C)(=O)=O)ccc2Oc2ccccn2)n2cc[nH]c(=O)c12	F
Cc1cc(-c2cc(CS(C)(=O)=O)cnc2Oc2ccc(F)cc2F)n2cc[nH]c(=O)c12	T
Cc1cc(-c2cc(NS(C)(=O)=O)ccc2Nc2ccccc2)n2cc[nH]c(=O)c12	F
Cc1cc(-c2cc(NS(C)(=O)=O)ccc2OC2CCOCC2)n2cc[nH]c(=O)c12	F

* * *

- Method Description: AUC (0 to t) in mouse at 3 mg/kg, iv by LC-MS/MS analysis
- Assay type: ADME, organism-based
- Run Conditions: in vivo
Attribute Measured: AUC(0-t) (ng·h/mL)

Structure	Recorded Number
CCS(=O)(=O)Cc1cnc(Oc2ccc(F)cc2F)c(-c2cc(C)c3c(=O)[nH]ccn23)c1	3270

* * *

- System: MV4-11
- Method Description: Antiproliferative activity against human MV4-11 cells assessed as reduction in cell viability measured after 72 hrs by Celltitre-glo luminescence assay
- Assay type: functional, cell-based
- Run Conditions: MV4-11, 72 h
pIC50: −log10 of the molar value.
Attribute Measured: pIC50

Structure	Recorded Number
Cc1cc(-c2cc(NS(C)(=O)=O)ccc2Oc2ccc(Cl)cc2)n2cc[nH]c(=O)c12	6.93
Cc1cc(-c2cc(NS(C)(=O)=O)ccc2Oc2ccccc2)n2cc[nH]c(=O)c12	7.69
CCS(=O)(=O)Cc1cnc(Oc2ccc(F)cc2F)c(-c2cc(C)c3c(=O)[nH]ccn23)c1	8.62
Cc1cc(-c2cc(NS(C)(=O)=O)ccc2OC2CCOCC2)n2cc[nH]c(=O)c12	6.41
CCS(=O)(=O)Nc1ccc(Oc2ccc(F)cc2F)c(-c2cn(C)c(=O)c3[nH]ccc23)c1	8.72

* * *

Below, each entry is listed alongside its reported AUC(0-t).
- Method Description: AUC (0 to t) in Sprague-Dawley rat at 3 mg/kg, po by LC-MS/MS analysis
- Format: ADME, organism-based
- Run Conditions: in vivo

Structure	AUC(0-t), ng·h/mL
Cc1cc(-c2cc(CS(C)(=O)=O)cnc2Oc2ccc(F)cc2F)n2cc[nH]c(=O)c12	520
CCS(=O)(=O)Cc1cnc(Oc2ccc(F)cc2F)c(-c2cc(C)c3c(=O)[nH]ccn23)c1	884

* * *

- Method Description: Clearance in Sprague-Dawley rat at 1 mg/kg, iv by LC-MS/MS analysis
- Assay type: ADME, organism-based
- Run Conditions: in vivo
Below, each entry is listed alongside its reported clearance.

Structure	clearance / mL/min/kg
Cc1cc(-c2cc(CS(C)(=O)=O)cnc2Oc2ccc(F)cc2F)n2cc[nH]c(=O)c12	37.5
CCS(=O)(=O)Cc1cnc(Oc2ccc(F)cc2F)c(-c2cc(C)c3c(=O)[nH]ccn23)c1	21.5

* * *

- Target Desc: Bromodomain-containing protein 4 (Homo sapiens, UniProt O60885)
- Method Description: Inhibition of HSGRGK(Ac)GGK(Ac)GLGK(Ac)GGAK(Ac)RHRK(Biotin)-OH binding to recombinant human His6-tagged BRD4 bromodomain 1 expressed in Escherichia coli BL21 (DE3)-R3-pRARE2 cells preincubated for 30 mins followed by HSGRGK(Ac)GGK(Ac)GLGK(Ac)GGAK(Ac)RHRK(Biotin)-OH addition and measured after 30 mins by Alphascreen assay

Structure	Unit Abbreviation	IC50
CC(=O)C[C@@H]1N=C(c2ccc(Cl)cc2)c2c(sc(C)c2C)-n2c(C)nnc21	nM	77

* * *

- Target Desc: Bromodomain-containing protein 3 (Homo sapiens, UniProt Q15059)
- Sequence (Q15059 whole entry, the tested form may be a part): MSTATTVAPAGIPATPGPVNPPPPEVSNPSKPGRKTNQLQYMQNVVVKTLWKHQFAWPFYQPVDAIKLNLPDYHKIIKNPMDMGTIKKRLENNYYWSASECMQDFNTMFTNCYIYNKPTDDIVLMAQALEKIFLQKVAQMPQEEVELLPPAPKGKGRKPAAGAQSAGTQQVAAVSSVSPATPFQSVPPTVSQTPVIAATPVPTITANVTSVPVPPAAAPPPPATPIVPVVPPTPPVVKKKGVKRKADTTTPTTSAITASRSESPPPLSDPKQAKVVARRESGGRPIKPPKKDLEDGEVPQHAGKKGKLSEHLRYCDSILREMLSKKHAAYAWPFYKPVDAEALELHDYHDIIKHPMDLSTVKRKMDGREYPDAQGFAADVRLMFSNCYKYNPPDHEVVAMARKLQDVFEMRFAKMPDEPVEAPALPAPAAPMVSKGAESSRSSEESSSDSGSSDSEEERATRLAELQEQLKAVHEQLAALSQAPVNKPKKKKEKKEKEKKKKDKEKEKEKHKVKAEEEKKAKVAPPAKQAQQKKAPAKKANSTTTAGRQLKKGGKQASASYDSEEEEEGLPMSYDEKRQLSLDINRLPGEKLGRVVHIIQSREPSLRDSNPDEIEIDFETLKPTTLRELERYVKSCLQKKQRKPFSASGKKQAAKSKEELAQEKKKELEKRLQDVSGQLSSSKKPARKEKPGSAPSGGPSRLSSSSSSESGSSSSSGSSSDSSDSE
- Method Description: Binding affinity to human partial length BRD3 BD2 (G306 to P416 residues) expressed in bacterial expression system by bromoscan assay
pKd: −log10 of the molar value.

Structure	pKd
CCS(=O)(=O)Cc1cnc(Oc2ccc(F)cc2F)c(-c2cc(C)c3c(=O)[nH]ccn23)c1	9.00

* * *

- Method Description: Volume of distribution at steady state in mouse at 3 mg/kg, iv by LC-MS/MS analysis
- Assay type: ADME, organism-based
- Run Conditions: in vivo, read-out: Vdss

Structure	Vd [L/kg]
CCS(=O)(=O)Cc1cnc(Oc2ccc(F)cc2F)c(-c2cc(C)c3c(=O)[nH]ccn23)c1	0.782

* * *

- Method Description: Clearance in mouse liver microsomes at 0.1 uM preincubated for 10 mins followed by NADPH addition and measured up to 60 mins by LC-MS/MS analysis
- Format: ADME, Microsome
- Run Conditions: 1 h
Below, each entry is listed alongside its reported log10(Microsomal intrinsic clearance).
Attribute Measured: log10(Microsomal intrinsic clearance) (log10 of the value in mL/min/g)

Structure	Recorded Number
Cc1cc(-c2cc(NS(C)(=O)=O)ccc2OC2CCCCC2)n2cc[nH]c(=O)c12	2.52
Cc1cc(-c2cc(NS(C)(=O)=O)ccc2Oc2ccc(F)cc2F)n2cc[nH]c(=O)c12	2.15
Cc1cc(-c2cc(NS(C)(=O)=O)ccc2Oc2ccccc2)n2cc[nH]c(=O)c12	2.06
Cc1cc(-c2cc(CS(C)(=O)=O)ccc2Oc2ccc(F)cc2F)n2cc[nH]c(=O)c12	2.58
CCS(=O)(=O)Cc1ccc(Oc2ccc(F)cc2F)c(-c2cc(C)c3c(=O)[nH]ccn23)c1	2.24
CCS(=O)(=O)Nc1ccc(Oc2ccc(F)cc2F)c(-c2cc(C)c3c(=O)[nH]ccn23)c1	2.36
Cc1cc(-c2cc(CS(C)(=O)=O)cnc2Oc2ccc(F)cc2F)n2cc[nH]c(=O)c12	1.55
CCS(=O)(=O)Cc1cnc(Oc2ccc(F)cc2F)c(-c2cc(C)c3c(=O)[nH]ccn23)c1	1.40
